System: Acinetobacter baumannii
method: Antibacterial activity against Acinetobacter baumannii ATCC 19606 assessed as bacterial growth inhibition incubated for 24 hrs by CLSI based broth microdilution method
Type: functional
Measured MIC of individual entries
Answer format: numeric, µg/mL implied, no suffix.

compound	targetSystem	metric	unitTag	recordedResult
C=C[C@]1(C)C[C@@H](OC(=O)COC(=O)/C=C/c2cccc(C#N)c2)[C@]2(C)[C@H](C)CC[C@]3(CCC(=O)[C@H]32)[C@@H](C)[C@@H]1O	Acinetobacter baumannii	MIC	µg/mL	128
C=C[C@]1(C)C[C@@H](OC(=O)COC(=O)/C=C/c2ccco2)[C@]2(C)[C@H](C)CC[C@]3(CCC(=O)[C@H]32)[C@@H](C)[C@@H]1O	Acinetobacter baumannii	MIC	µg/mL	64
C=C[C@]1(C)C[C@@H](OC(=O)COC(=O)/C=C/c2ccc(F)c(F)c2F)[C@]2(C)[C@H](C)CC[C@]3(CCC(=O)[C@H]32)[C@@H](C)[C@@H]1O	Acinetobacter baumannii	MIC	µg/mL	128
C=C[C@]1(C)C[C@@H](OC(=O)CSC(C)(C)CNC(=O)[C@H](N)C(C)C)[C@]2(C)[C@H](C)CC[C@]3(CCC(=O)[C@H]32)[C@@H](C)[C@@H]1O [VALNEMULIN]	Acinetobacter baumannii	MIC	µg/mL	2
C=C[C@]1(C)C[C@@H](OC(=O)COC(=O)/C=C/c2ccc(F)cc2)[C@]2(C)[C@H](C)CC[C@]3(CCC(=O)[C@H]32)[C@@H](C)[C@@H]1O	Acinetobacter baumannii	MIC	µg/mL	128
C=C[C@]1(C)C[C@@H](OC(=O)CSCCN(CC)CC)[C@]2(C)[C@H](C)CC[C@]3(CCC(=O)[C@H]32)[C@@H](C)[C@@H]1O [TIAMULIN]	Acinetobacter baumannii	MIC	µg/mL	64
C=C[C@]1(C)C[C@@H](OC(=O)COC(=O)/C=C/c2ccc([N+](=O)[O-])cc2)[C@]2(C)[C@H](C)CC[C@]3(CCC(=O)[C@H]32)[C@@H](C)[C@@H]1O	Acinetobacter baumannii	MIC	µg/mL	64
C=C[C@]1(C)C[C@@H](OC(=O)COC(=O)/C=C/c2cc(Br)ccc2F)[C@]2(C)[C@H](C)CC[C@]3(CCC(=O)[C@H]32)[C@@H](C)[C@@H]1O	Acinetobacter baumannii	MIC	µg/mL	128

Note down MIC recorded for C=C[C@]1(C)C[C@@H](OC(=O)COC(=O)/C=C/c2cccc(Cl)c2)[C@]2(C)[C@H](C)CC[C@]3(CCC(=O)[C@H]32)[C@@H](C)[C@@H]1O
128

Note down MIC recorded for C=C[C@]1(C)C[C@@H](OC(=O)COC(=O)/C=C/c2cccs2)[C@]2(C)[C@H](C)CC[C@]3(CCC(=O)[C@H]32)[C@@H](C)[C@@H]1O
64

Note down MIC recorded for C=C[C@]1(C)C[C@@H](OC(=O)COC(=O)/C=C/c2ccc(OCc3ccccc3)cc2)[C@]2(C)[C@H](C)CC[C@]3(CCC(=O)[C@H]32)[C@@H](C)[C@@H]1O
64

Note down MIC recorded for C=C[C@]1(C)C[C@@H](OC(=O)COC(=O)/C=C/c2cccnc2)[C@]2(C)[C@H](C)CC[C@]3(CCC(=O)[C@H]32)[C@@H](C)[C@@H]1O
32

Note down MIC recorded for C=C[C@]1(C)C[C@@H](OC(=O)COC(=O)/C(C#N)=C/c2ccccc2)[C@]2(C)[C@H](C)CC[C@]3(CCC(=O)[C@H]32)[C@@H](C)[C@@H]1O
4

Note down MIC recorded for C=C[C@]1(C)C[C@@H](OC(=O)COC(=O)/C=C/c2ccc(Cn3ccnc3)cc2)[C@]2(C)[C@H](C)CC[C@]3(CCC(=O)[C@H]32)[C@@H](C)[C@@H]1O
128

---

System: Enterococcus
method: Antibacterial activity against vancomycin-resistant Enterococcus 80 clinical isolate assessed as bacterial growth inhibition incubated for 24 hrs by CLSI based broth microdilution method
Format: functional
Classify: criterion met when MIC is strictly less than 30 µg/mL; criterion not met when MIC is not.

For orientation, consider the following solved cases.
structureNotation	group
C=C[C@]1(C)C[C@@H](OC(=O)COC(=O)/C=C/c2ccc(N(C)C)cc2)[C@]2(C)[C@H](C)CC[C@]3(CCC(=O)[C@H]32)[C@@H](C)[C@@H]1O	criterion met
C=C[C@]1(C)C[C@@H](OC(=O)CS[C@@H]2C[C@H]3CC[C@@H](C2)N3C)[C@]2(C)[C@H](C)CC[C@]3(CCC(=O)[C@H]32)[C@@H](C)[C@@H]1O	criterion not met
C=C[C@]1(C)C[C@@H](OC(=O)COC(=O)/C=C/c2cccc(C#N)c2)[C@]2(C)[C@H](C)CC[C@]3(CCC(=O)[C@H]32)[C@@H](C)[C@@H]1O	criterion met
C=C[C@]1(C)C[C@@H](OC(=O)COC(=O)/C=C/c2ccc([N+](=O)[O-])cc2)[C@]2(C)[C@H](C)CC[C@]3(CCC(=O)[C@H]32)[C@@H](C)[C@@H]1O	criterion met
C=C[C@]1(C)C[C@@H](OC(=O)COC(=O)/C=C/c2cccnc2)[C@]2(C)[C@H](C)CC[C@]3(CCC(=O)[C@H]32)[C@@H](C)[C@@H]1O	criterion not met

Would you kindly verify if MIC of C=C[C@]1(C)C[C@@H](OC(=O)CSC(C)(C)CNC(=O)[C@H](N)C(C)C)[C@]2(C)[C@H](C)CC[C@]3(CCC(=O)[C@H]32)[C@@H](C)[C@@H]1O is strictly less than 30 µg/mL?
criterion not met

Would you kindly verify if MIC of C=C[C@]1(C)C[C@@H](OC(=O)COC(=O)/C(C#N)=C/c2ccccc2)[C@]2(C)[C@H](C)CC[C@]3(CCC(=O)[C@H]32)[C@@H](C)[C@@H]1O is strictly less than 30 µg/mL?
criterion met

---

method: Half life in fasted Sprague-Dawley rat at 1 mg/kg, iv by LC-MS/MS analysis
Type: ADME, organism-based
testParameters: in vivo
metric: half-life (min)
Answer format: numeric, min implied, no suffix.

Note down half-life recorded for C=C[C@]1(C)C[C@@H](OC(=O)COC(=O)/C=C/c2ccc(N(C)C)cc2)[C@]2(C)[C@H](C)CC[C@]3(CCC(=O)[C@H]32)[C@@H](C)[C@@H]1O
40.8

---

Measured MIC of individual entries
System: Staphylococcus aureus
method: Antibacterial activity against methicillin-resistant Staphylococcus aureus 575 clinical isolate assessed as bacterial growth inhibition incubated for 24 hrs by CLSI based broth microdilution method
Assay type: functional
Answer format: numeric, µg/mL implied, no suffix.

structureNotation	targetSystem	MIC (µg/mL)
C=C[C@]1(C)C[C@@H](OC(=O)COC(=O)/C=C/c2ccc(N(C)C)cc2)[C@]2(C)[C@H](C)CC[C@]3(CCC(=O)[C@H]32)[C@@H](C)[C@@H]1O	Staphylococcus aureus	8

As a next step, examine the compound that follows.
Look up Staphylococcus aureus data: MIC of C=C[C@]1(C)C[C@@H](OC(=O)CS[C@@H]2C[C@H]3CC[C@@H](C2)N3C)[C@]2(C)[C@H](C)CC[C@]3(CCC(=O)[C@H]32)[C@@H](C)[C@@H]1O , then report it.
64

---

Measured log10 MIC of individual entries
System: Escherichia coli
method: Antibacterial activity against Escherichia coli ATCC 25922 assessed as bacterial growth inhibition incubated for 24 hrs by CLSI based broth microdilution method
Assay type: functional
Lab note - MIC converted to log10 from values in µg/mL.

Known log10 MIC results, listed for orientation:
structureNotation	log10 MIC
C=C[C@]1(C)C[C@@H](OC(=O)COC(=O)/C=C/c2cccc(C#N)c2)[C@]2(C)[C@H](C)CC[C@]3(CCC(=O)[C@H]32)[C@@H](C)[C@@H]1O	1.81
C=C[C@]1(C)C[C@@H](OC(=O)COC(=O)/C=C/c2cccnc2)[C@]2(C)[C@H](C)CC[C@]3(CCC(=O)[C@H]32)[C@@H](C)[C@@H]1O	1.20
C=C[C@]1(C)C[C@@H](OC(=O)COC(=O)/C=C/c2ccc(N(C)C)cc2)[C@]2(C)[C@H](C)CC[C@]3(CCC(=O)[C@H]32)[C@@H](C)[C@@H]1O	1.20

As a next step, examine the compound that follows.
Look up Escherichia coli data: log10 MIC of C=C[C@]1(C)C[C@@H](OC(=O)COC(=O)/C=C/c2ccc([N+](=O)[O-])cc2)[C@]2(C)[C@H](C)CC[C@]3(CCC(=O)[C@H]32)[C@@H](C)[C@@H]1O , then report it.
1.51

---

method: Cytotoxicity against human HepG2 cells incubated for 24 hrs by CCK8 assay
Type: toxicity, cell-based
metric: CC50 at 24 h (µM)
Answer format: numeric, µM implied, no suffix.

structureNotation	unitTag	recordedResult
C=C[C@]1(C)C[C@@H](OC(=O)COC(=O)/C=C/c2cccc(C#N)c2)[C@]2(C)[C@H](C)CC[C@]3(CCC(=O)[C@H]32)[C@@H](C)[C@@H]1O	µM	78.5

Note down CC50 at 24 h recorded for C=C[C@]1(C)C[C@@H](OC(=O)CS[C@@H]2C[C@H]3CC[C@@H](C2)N3C)[C@]2(C)[C@H](C)CC[C@]3(CCC(=O)[C@H]32)[C@@H](C)[C@@H]1O
36.5

Note down CC50 at 24 h recorded for C=C[C@]1(C)C[C@@H](OC(=O)CSC(C)(C)CNC(=O)[C@H](N)C(C)C)[C@]2(C)[C@H](C)CC[C@]3(CCC(=O)[C@H]32)[C@@H](C)[C@@H]1O
37.3

Note down CC50 at 24 h recorded for C=C[C@]1(C)C[C@@H](OC(=O)COC(=O)/C=C/c2cccnc2)[C@]2(C)[C@H](C)CC[C@]3(CCC(=O)[C@H]32)[C@@H](C)[C@@H]1O
80.6
